// data source = ChEMBL document CHEMBL4118236

tested on: Rattus norvegicus; experiment: AUC (0 to infinity) in Sprague-Dawley rat at 1 mg/kg, iv by LC-MS/MS; assay type: ADME, organism-based; set-up: dose 1 mg/kg, route intravenous, time infinity; conditions: in vivo
reported.property: AUC (ng·h/mL)
Answers are plain numbers, in ng·h/mL.

Query :: State its AUC for this compound: O=C(O)CNC(=O)c1ncc(-c2cn(CCCc3ccc(Cl)cc3)nn2)cc1O
Result :: 933

---

molecular target: Egl nine homolog 1 (Homo sapiens, UniProt Q9GZT9)
Sequence (Q9GZT9 whole entry): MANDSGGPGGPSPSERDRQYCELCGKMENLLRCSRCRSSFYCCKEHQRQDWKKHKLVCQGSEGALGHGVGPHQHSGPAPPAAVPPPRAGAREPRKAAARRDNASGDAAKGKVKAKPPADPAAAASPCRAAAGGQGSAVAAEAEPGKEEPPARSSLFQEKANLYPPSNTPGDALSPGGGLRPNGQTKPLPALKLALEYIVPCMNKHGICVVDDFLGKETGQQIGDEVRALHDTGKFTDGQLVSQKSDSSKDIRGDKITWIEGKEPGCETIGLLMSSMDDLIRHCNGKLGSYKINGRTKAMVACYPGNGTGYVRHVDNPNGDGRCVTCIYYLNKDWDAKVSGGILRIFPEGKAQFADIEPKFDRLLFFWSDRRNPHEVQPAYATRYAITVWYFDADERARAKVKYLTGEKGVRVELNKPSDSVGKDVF
reported.property: IC50 (µM)
One number for each entry, in µM.

Query :: Return reported IC50 for target or system Egl nine homolog 1 (Homo sapiens, UniProt Q9GZT9), item O=C(O)CNC(=O)c1ncc(-c2cn(CCCc3ccc(Cl)cc3)nn2)cc1O .
Result :: 0.0622

---

test: Clearance in Sprague-Dawley rat at 1 mg/kg, iv by LC-MS/MS; type: ADME, organism-based; details: in vivo
reported.property: clearance
Please answer in the form of a number followed by its unit of measurement.

Query :: State its clearance for this compound: O=C(O)CNC(=O)c1ncc(-c2cn(CCCc3ccc(Cl)cc3)nn2)cc1O
Result :: 19.4 mL/min/kg

---

tested on: Rattus norvegicus; experiment: AUC (0 to t) in Sprague-Dawley rat at 10 mg/kg, po by LC-MS/MS; assay type: ADME, organism-based; details: in vivo
reported.property: AUCt (ng·h/mL)
Give bare numbers, in ng·h/mL.

Query :: Return reported AUCt for target or system Rattus norvegicus, item O=C(O)CNC(=O)c1ncc(-c2cn(CCCc3ccc(Cl)cc3)nn2)cc1O .
Result :: 4990

---

test: Effective permeability of the compound at pH 7.4 by PAMPA; type: ADME; details: read-out: Peff
reported.property: Papp (×10⁻⁶ cm/s)
Give bare numbers, in ×10⁻⁶ cm/s.

>>> numeric_result("Cc1nc(C(=O)NCC(=O)O)c(O)c2ccc(Oc3ccccc3)cc12 [ROXADUSTAT]")
12.7

Now examine the next entry.
Query :: State its Papp for this molecule: O=C(O)CNC(=O)c1ncc(-c2cn(CCCc3ccc(Cl)cc3)nn2)cc1O
Result :: 11.5

---

assay: Cmax in Sprague-Dawley rat at 10 mg/kg, po by LC-MS/MS; type: ADME, organism-based; set-up: dose 10 mg/kg, route oral; details: in vivo
reported.property: Cmax (ng/mL)
Numbers only, in ng/mL.

Query :: State its Cmax for this compound: O=C(O)CNC(=O)c1ncc(-c2cn(CCCc3ccc(Cl)cc3)nn2)cc1O
Result :: 1550

---

biological target: Egl nine homolog 1 (Homo sapiens, UniProt Q9GZT9)
reported.property: IC50 (µM)
Numbers only, in µM.

Query :: State its IC50 for this compound: O=C(O)CNC(=O)c1ncc(-c2cn(CCCc3ccc(Cl)cc3)nn2)cc1O
Result :: 1.31

---

assay: Half life in Sprague-Dawley rat at 10 mg/kg, po by LC-MS/MS; assay type: ADME, organism-based; conditions: in vivo
reported.property: half-life (h)
Give bare numbers, in h.

Query :: State its half-life for this molecule: O=C(O)CNC(=O)c1ncc(-c2cn(CCCc3ccc(Cl)cc3)nn2)cc1O
Result :: 3.07

---

tested on: Rattus norvegicus; test: AUC (0 to infinity) in Sprague-Dawley rat at 10 mg/kg, po by LC-MS/MS; format: ADME, organism-based; parameters: dose 10 mg/kg, time infinity, route oral; details: in vivo
reported.property: AUC
Please answer in the form of a number followed by its unit of measurement.

Query :: State its AUC for this compound: O=C(O)CNC(=O)c1ncc(-c2cn(CCCc3ccc(Cl)cc3)nn2)cc1O
Result :: 5440 ng·h/mL
